# TESTED_ON: human NK-3 receptor (Homo sapiens (Human), UniProt P29371)
# Sequence (P29371 whole entry): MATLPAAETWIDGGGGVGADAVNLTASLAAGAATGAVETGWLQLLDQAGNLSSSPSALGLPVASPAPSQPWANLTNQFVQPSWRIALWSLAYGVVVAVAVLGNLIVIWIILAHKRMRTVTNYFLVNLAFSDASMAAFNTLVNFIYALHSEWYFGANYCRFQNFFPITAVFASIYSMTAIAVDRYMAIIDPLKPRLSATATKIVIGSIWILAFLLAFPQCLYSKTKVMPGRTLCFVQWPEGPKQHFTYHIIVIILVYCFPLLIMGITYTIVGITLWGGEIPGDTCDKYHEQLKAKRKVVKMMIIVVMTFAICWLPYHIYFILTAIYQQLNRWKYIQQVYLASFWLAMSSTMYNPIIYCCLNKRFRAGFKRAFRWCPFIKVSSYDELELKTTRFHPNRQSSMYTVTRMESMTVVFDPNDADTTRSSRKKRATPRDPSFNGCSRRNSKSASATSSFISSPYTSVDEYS
# MEASUREMENT_DESCRIPTION: Aequorin functional assay with human NK-3 receptor (antagonist testing)
# CONDITION_INFO: CHO cells expressing human NK-3 receptor; agonist NKA at EC80 (3 nM); read-out: Functional assay: Aequorin assay with human NK-3 receptor hNK-3 - AEQ (antagonist IC50)
RESULT_TYPE: IC50 (nM)

Recorded results for 8 compounds are shown here.
COMPOUND	IC50, nM
C[C@@H]1c2nnc(-c3csc(C(F)(F)F)n3)n2CCN1C(=O)c1cc(F)c(F)c(F)c1F [Compound 12]	33
C[C@@H]1c2nnc(-c3csc(C(F)(F)F)n3)n2CCN1C(=O)c1ccc(Cl)cc1 [Compound 18]	31
Cc1ccc(-c2nnc3n2CCN(C(=O)c2cc(F)c(F)c(F)c2)[C@@H]3C)o1 [Compound 7]	57
C[C@@H]1c2nnc(-c3csc(C(F)(F)F)n3)n2CCN1C(=O)c1cc(F)c(F)c(F)c1 [Compound 15]	24
Cc1ccc(-c2nnc3n2CCN(C(=O)c2ccc(F)cc2)[C@@H]3C)o1 [Compound 1]	60
Cc1ccc(-c2nnc3n2CCN(C(=O)c2ccc(F)c(Cl)c2)[C@@H]3C)o1 [Compound 8]	62
Cc1nc(-c2nnc3n2CCN(C(=O)c2ccc(F)cc2)[C@@H]3C)cs1 [Compound 2]	160
C[C@@H]1c2nnc(-c3csc(C(F)(F)F)n3)n2CCN1C(=O)c1ccc(F)c(F)c1 [Compound 13]	26

A = Cc1ccc(-c2nnc3n2CCN(C(=O)c2ccc(Cl)c(Cl)c2)[C@@H]3C)o1 [Compound 11]
B = Cc1ccc(-c2nnc3n2CCN(C(=O)c2ccc(Cl)cc2)[C@@H]3C)o1 [Compound 10]
Smaller IC50 value, A vs B ? Refer to your chosen entry by its label in the reply.
A
(A: 36 nM, B: 74 nM)

----------
# TESTED_ON: human NK-3 receptor (Homo sapiens (Human), UniProt P29371)
# MEASUREMENT_DESCRIPTION: 3H-SB222200 binding competition assay with human NK-3 receptor
# CONDITION_INFO: Table 3 (selectivity table); read-out: hNK-3 (Ki)
RESULT_TYPE: Ki (nM)

Recorded results for 5 compounds are shown here.
SMILES_TEXT	UNITS_OF_MEASURE	Ki
Cc1ccc(-c2nnc3n2CCN(C(=O)c2ccc(Cl)cc2)[C@@H]3C)o1	nM	36
C[C@@H]1c2nnc(-c3csc(C(F)(F)F)n3)n2CCN1C(=O)c1ccc(F)c(Cl)c1	nM	14
Cc1ccc(-c2nnc3n2CCN(C(=O)c2ccc(Cl)c(Cl)c2)[C@@H]3C)o1	nM	27
Cc1ccc(-c2nnc3n2CCN(C(=O)c2ccc(Cl)c(F)c2)[C@@H]3C)o1	nM	38
Cc1ccc(-c2nnc3n2CCN(C(=O)c2ccc(F)c(F)c2F)[C@@H]3C)o1	nM	74

P = C[C@@H]1c2nnc(-c3csc(C(F)(F)F)n3)n2CCN1C(=O)c1cc(F)c(F)c(F)c1
Q = C[C@@H]1c2nnc(-c3csc(C(F)(F)F)n3)n2CCN1C(=O)c1cc(F)c(F)c(F)c1F
R = Cc1ccc(-c2nnc3n2CCN(C(=O)c2cc(F)c(F)c(F)c2F)[C@@H]3C)o1
S = C[C@@H]1c2nnc(-c3csc(C(F)(F)F)n3)n2CCN1C(=O)c1ccc(F)c(F)c1
Could you please sort these 4 entries by Ki from high to low? Record the ranking as a list of labels in the requested order.
R, Q, S, P

a = C[C@@H]1c2nnc(-c3csc(C(F)(F)F)n3)n2CCN1C(=O)c1ccc(Cl)c(F)c1
b = C[C@@H]1c2nnc(-c3csc(C(F)(F)F)n3)n2CCN1C(=O)c1ccc(F)c(F)c1F
Smaller Ki value, a vs b ? Refer to your chosen entry by its label in the reply.
a
(a: 22 nM, b: 40 nM)

----------
# TESTED_ON: human NK-2 receptor (Homo sapiens (Human), UniProt P21452)
# Sequence (P21452 whole entry): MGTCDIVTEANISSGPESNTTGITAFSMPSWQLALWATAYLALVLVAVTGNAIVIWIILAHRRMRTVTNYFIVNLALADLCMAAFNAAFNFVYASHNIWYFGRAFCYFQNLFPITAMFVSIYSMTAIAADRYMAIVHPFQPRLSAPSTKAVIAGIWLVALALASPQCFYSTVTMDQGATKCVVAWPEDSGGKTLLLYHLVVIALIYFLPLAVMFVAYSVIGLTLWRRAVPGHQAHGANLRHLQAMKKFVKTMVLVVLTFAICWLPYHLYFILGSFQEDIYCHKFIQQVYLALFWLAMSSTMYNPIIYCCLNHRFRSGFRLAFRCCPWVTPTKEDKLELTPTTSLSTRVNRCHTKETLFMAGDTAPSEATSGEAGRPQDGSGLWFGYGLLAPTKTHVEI
pKi: −log10 of the molar value.
RESULT_TYPE: pKi

MOLECULE	pKi
Cc1ccc(-c2nnc3n2CCN(C(=O)c2ccc(F)c(F)c2)[C@@H]3C)o1 [Compound 5]	4.51

P = Cc1ccc(-c2nnc3n2CCN(C(=O)c2cc(F)c(F)c(F)c2)[C@@H]3C)o1 [Compound 7]
Q = Cc1ccc(-c2nnc3n2CCN(C(=O)c2ccc(F)c(Cl)c2)[C@@H]3C)o1 [Compound 8]
Smaller pKi value, P vs Q ? Refer to your chosen entry by its label in the reply.
P
(P: 4.68, Q: 5.04)

----------
# TESTED_ON: human NK-3 receptor (Homo sapiens (Human))
# MEASUREMENT_DESCRIPTION: 3H-SB222200 binding competition assay with human NK-3 receptor
# CONDITION_INFO: CHO cell membranes; 5 nM 3H-SB222200; Table 2; read-out: Competitive binding assay with human NK-3 receptor hNK-3 (Ki)
pKi: −log10 of the molar value.
RESULT_TYPE: pKi

SMILES_TEXT	ENDPOINT_VALUE
Cc1ccc(-c2nnc3n2CCN(C(=O)c2ccc(Cl)c(F)c2)[C@@H]3C)o1	7.42

a = C[C@@H]1c2nnc(-c3csc(C(F)(F)F)n3)n2CCN1C(=O)c1ccc(F)c(F)c1
b = C[C@@H]1c2nnc(-c3csc(C(F)(F)F)n3)n2CCN1C(=O)c1ccc(F)c(F)c1F
Determine, for a and b , which has the greater value of pKi. Refer to your chosen entry by its label in the reply.
a
(a: 7.70, b: 7.40)

----------
# TESTED_ON: human NK-3 receptor (Homo sapiens (Human), UniProt P29371)
# MEASUREMENT_DESCRIPTION: 3H-SB222200 binding competition assay with human NK-3 receptor
# CONDITION_INFO: Table 3 (selectivity table); read-out: hNK-3 (Ki)
pKi: −log10 of the molar value.
RESULT_TYPE: pKi

Recorded results for 2 compounds are shown here.
SMILES_TEXT	RESULT_TYPE	ENDPOINT_VALUE
Cc1ccc(-c2nnc3n2CCN(C(=O)c2cc(F)c(F)c(F)c2)[C@@H]3C)o1	pKi	7.48
C[C@@H]1c2nnc(-c3csc(C(F)(F)F)n3)n2CCN1C(=O)c1ccc(Cl)cc1	pKi	7.68

P = C[C@@H]1c2nnc(-c3csc(C(F)(F)F)n3)n2CCN1C(=O)c1ccc(F)cc1
Q = Cc1ccc(-c2nnc3n2CCN(C(=O)c2ccc(F)cc2)[C@@H]3C)o1
Determine, for P and Q , which has the greater value of pKi. Refer to your chosen entry by its label in the reply.
P
(P: 7.66, Q: 7.32)
